Test system: Calu-3
Test: drug sensitivity score (DSS) for viability; higher = more toxic; extreme values may be limits of the assay
Settings: 72 h
ASSAY_ENDPOINT: drug sensitivity score

>  <COMPOUND>
CC(=O)Oc1ccccc1C(=O)Oc1ccccc1C(=O)O

>  <drug sensitivity score>
0

$$$$
>  <COMPOUND>
COc1ccccc1C1(O)CCN(CCCn2c3ccccc3c3ccccc32)CC1

>  <drug sensitivity score>
7

$$$$
>  <COMPOUND>
CC(C)(C)NCC(O)COc1cc(Cl)ccc1Cl (configuration not stated)

>  <drug sensitivity score>
0

$$$$
>  <COMPOUND>
Cc1[nH]c(/C=C2\C(=O)Nc3ccc(S(=O)(=O)Cc4c(Cl)cccc4Cl)cc32)c(C)c1C(=O)N1CCC[C@@H]1CN1CCCC1

>  <drug sensitivity score>
5.4

$$$$

Dear colleague, could you send me drug sensitivity score for each of the items below? Thanks.
1. CO[C@H](C(=O)[C@@H](O)[C@@H](C)O)[C@@H]1Cc2cc3cc(O[C@H]4C[C@@H](O[C@H]5C[C@@H](O)[C@H](O)[C@@H](C)O5)[C@@H](O)[C@@H](C)O4)c(C)c(O)c3c(O)c2C(=O)[C@H]1O[C@H]1C[C@@H](O[C@H]2C[C@@H](O[C@H]3C[C@](C)(O)[C@H](O)[C@@H](C)O3)[C@H](O)[C@@H](C)O2)[C@H](O)[C@@H](C)O1
2. OCc1ccc(-c2nn(Cc3ccccc3)c3ccccc23)o1

[20.8, 0]

Measured drug sensitivity score of NC(=O)c1ncn([C@@H]2O[C@H](CO)[C@@H](O)[C@H]2O)n1 : 0.3

----------
Please go through the items and note down their cell viability.
Tested on: Caco-2
Test: cell viability relative to DMSO; higher = less toxic
Conditions: 72 h; 1 nM
Give bare numbers, in %.

The following compounds have reported results that may help.
>  <COMPOUND>
CC[C@]1(O)C[C@@H]2CN(CCc3c([nH]c4ccccc34)[C@@](C(=O)OC)(c3cc4c(cc3OC)N(C)[C@H]3[C@@](O)(C(N)=O)[C@H](O)[C@]5(CC)C=CCN6CC[C@]43[C@@H]65)C2)C1 [vindesine]

>  <MEASUREMENT_UNITS>
%

>  <cell viability>
93.8

$$$$
>  <COMPOUND>
CCCC(CCC)C(=O)Nc1ccn([C@@H]2O[C@H](CO)[C@@H](O)C2(F)F)c(=O)n1

>  <MEASUREMENT_UNITS>
%

>  <cell viability>
94.7

$$$$
>  <COMPOUND>
CO[C@H](C(=O)[C@@H](O)[C@@H](C)O)[C@@H]1Cc2cc3cc(O[C@H]4C[C@@H](O[C@H]5C[C@@H](O)[C@H](O)[C@@H](C)O5)[C@@H](O)[C@@H](C)O4)c(C)c(O)c3c(O)c2C(=O)[C@H]1O[C@H]1C[C@@H](O[C@H]2C[C@@H](O[C@H]3C[C@](C)(O)[C@H](O)[C@@H](C)O3)[C@H](O)[C@@H](C)O2)[C@H](O)[C@@H](C)O1 [plicamycin]

>  <MEASUREMENT_UNITS>
%

>  <cell viability>
101

$$$$

I need cell viability for every entry listed below, if you could help.
1. CC(O)c1cc(C(=O)N[C@@H](C)Cn2ccc(-c3ccc(C#N)c(Cl)c3)n2)n[nH]1 (stereo partly drawn) [ODM-201]
2. COc1nccc(-c2c(-c3ccc(F)cc3)ncn2C2CCNCC2)n1
3. Cc1ccc2nc(N)[nH]c(=O)c2c1Sc1ccncc1 [nolatrexed]
4. CC1(C)CCC(C)(C)c2cc(Cn3cccn3)c(/C=C/c3ccc(C(=O)O)cc3)cc21 [palovarotene]
5. CC(=O)O[C@H]1Cc2ccccc2N(C(N)=O)c2ccccc21 [eslicarbazepine-acetate]
6. NC(=O)c1ncn([C@@H]2O[C@H](CO)[C@@H](O)[C@H]2O)n1 [ribavirin]

1: 104; 2: 95.8; 3: 98.2; 4: 107; 5: 104; 6: 109

Count: 7. Required value per item: cell viability.
1. CC(C)c1ccc(C(=O)N=C(N)N)cc1S(C)(=O)=O [cariporide]
2. CC(C)(C)CCN1C[C@@H]2[C@@H](CNC(=O)c3cc(Cl)cc(Cl)c3)[C@@H]2C1 [ML218]
3. CCN(C(=O)c1c(O)c2c(Cl)cccc2n(C)c1=O)c1ccccc1 [laquinimod]
4. O=C1O[C@H]([C@@H](O)CO)C(O)=C1O [ASCORBIC ACID]
5. COc1ccccc1C1(O)CCN(CCCn2c3ccccc3c3ccccc32)CC1 [NNC-05-2090]
6. O=C(O)CCCN1C(=O)c2cccc3cccc(c23)C1=O [isodibut]
7. OCCn1cc(-c2cnc3nnn(Cc4ccc5ncccc5c4)c3n2)cn1

[109, 104, 90.3, 103, 97.4, 105, 93.7]

# per-item lookup of cell viability; items listed below
1. O=C1NC(O)CCN1[C@@H]1O[C@H](CO)[C@@H](O)[C@H]1O (stereo partly drawn) [tetrahydrouridine]
2. COc1cc(NC(C)CCCN)c2ncccc2c1 (stereo not drawn) [primaquine]

[101, 103]

----------
Give drug sensitivity score for every item shown.
Tested on: Caco-2
Test: drug sensitivity score (DSS) for viability; higher = more toxic; extreme values may be limits of the assay
Settings: 72 h
One number for each entry.

Completed entries (count: 3):
>  <COMPOUND>
CCS(=O)(=O)N1CC(CC#N)(n2cc(-c3ncnc4[nH]ccc34)cn2)C1

>  <drug sensitivity score>
0

$$$$
>  <COMPOUND>
C[C@@H]1C[C@H]2[C@@H]3C[C@H](F)C4=CC(=O)C=C[C@]4(C)[C@@]3(F)[C@@H](O)C[C@]2(C)[C@@]1(O)C(=O)CO

>  <drug sensitivity score>
0

$$$$
>  <COMPOUND>
O=C(NOCCO)c1ccc2cncn2c1Nc1ccc(I)cc1F

>  <drug sensitivity score>
13.8

$$$$

// batch mode: one drug sensitivity score value per listed entry
1. COC(=O)C1=C(C)NC(C)=C([N+](=O)[O-])[C@@H]1c1ccccc1C(F)(F)F (racemic) [BAY-K-8644-(+/-)]
2. C=C1C(=O)O[C@@H]2[C@H]3O[C@]3(C)CC/C=C(\C)CC[C@@H]12 [parthenolide-(alternate-stereo)]
3. Sc1nc2ccccc2s1 [benzo[d]thiazole-2(3H)-thione]
4. Cc1ccc(C[N+](C)(C)C)o1 [5-methylfurmethiodide]

1: 0; 2: 3.07; 3: 0; 4: 0

# batch: return drug sensitivity score for each of the 3 compounds below
1. CCOC(=O)c1cc2ccc(O)cc2oc1=O
2. CCCCC/C=C\C/C=C\C/C=C\CCCCC(=O)O
3. C=C1/C(=C\C=C2/CCC[C@]3(C)[C@@H]([C@H](C)/C=C/[C@@H](O)C4CC4)CC[C@@H]23)C[C@@H](O)C[C@@H]1O

0
0
0

Go through the list and state drug sensitivity score for each entry.
1. Cc1ccc(N2CCN(CC[C@H]3NC(=O)c4ccccc43)CC2)cc1C
2. CC[N+](C)(CC)CCOC(=O)C(O)(c1ccccc1)C1CCCCC1 (stereo not given)
3. COc1cc(NC(C)CCCN)c2ncccc2c1 (stereo not given)
4. CCCCC/C=C\C/C=C\C/C=C\C/C=C\CCCC(=O)Nc1ccc(O)cc1
5. COCCCN1CCC(NC(=O)c2cc(Cl)c(N)c3c2OCC3)CC1 [prucalopride]

[0, 0, 4, 0, 0]

----------
Record form. Attribute: cell viability. Fill in for each entry.
Tested on: Calu-3
Test: cell viability relative to DMSO; higher = less toxic
Conditions: 72 h; 1000 nM
Number first, unit second: that is the form wanted.

>  <COMPOUND>
O=C(c1c(F)ccc(NS(=O)(=O)N2CC[C@@H](F)C2)c1F)c1c[nH]c2ncc(-c3cnc(C4CC4)nc3)cc12

>  <ASSAY_ENDPOINT>
cell viability

>  <RESULT>
104%

$$$$

Working through the 2 compounds below one at a time, give cell viability for each.
1. COC(=O)C1=C(C)NC(C)=C([N+](=O)[O-])[C@@H]1c1ccccc1C(F)(F)F (racemic) [BAY-K-8644-(+/-)]
2. C[C@@H]1C[C@H]2[C@@H]3CCC4=CC(=O)C=C[C@]4(C)[C@@]3(Cl)[C@@H](O)C[C@]2(C)[C@@]1(OC(=O)c1ccco1)C(=O)CCl [MOMETASONE FUROATE]

1. 100%
2. 97.1%

Batch: cell viability for all items listed.
1. c1coc(-c2nnc3sc(C4CCCCC4)nn23)c1
2. O=C(Nc1ccccc1C(=O)NC1CCCCNC1=O)c1cc2ccccc2s1 (configuration not stated)
3. CNC(=O)c1cccc(-c2ccc3c(N4CCOC[C@@H]4C)nc(N4CCOC[C@@H]4C)nc3n2)c1

102%
94.7%
27.7%

Entry CCOc1cc(N2CCC(O)CC2)ccc1Nc1ncc2c(n1)N(C)c1ccccc1C(=O)N2C — recorded cell viability = 109%

Sourced from the supplement of paper PMC13380429
